Reference source: ChEMBL document CHEMBL1795320

- Test system: Streptococcus pneumoniae
- protocol-details: Antibacterial activity against erythromycin-susceptible Streptococcus pneumoniae ATCC 49619 by broth microdilution method
- Assay type: functional
reported-endpoint: MIC (µg/mL)
Your answer should be a plain number; it is taken to be in µg/mL.

Solved cases (2 shown):
Ask: Name the reported MIC value associated with the molecule CC[C@H]1OC(=O)[C@H](C)[C@@H](O[C@H]2C[C@@](C)(OC)[C@@H](OC(=O)NNC(=O)c3ccc4[nH]c(-c5ccccc5OC)nc4c3)[C@H](C)O2)[C@H](C)[C@@H](O[C@@H]2O[C@H](C)C[C@H](N(C)C)[C@H]2O)[C@](C)(OC)C[C@@H](C)C(=O)[C@H](C)[C@@H](O)[C@]1(C)O
Reply: 0.03

Ask: Param item = CC[C@H]1OC(=O)[C@H](C)[C@@H](O[C@H]2C[C@@](C)(OC)[C@@H](OC(=O)NNC(=O)c3ccc4[nH]c(-c5ccc(Br)cc5)nc4c3)[C@H](C)O2)[C@H](C)[C@@H](O[C@@H]2O[C@H](C)C[C@H](N(C)C)[C@H]2O)[C@](C)(OC)C[C@@H](C)C(=O)[C@H](C)[C@@H](O)[C@]1(C)O ; retrieve measured MIC.
Reply: 0.25

Now consider the entry below.
Ask: Dear colleague, I am looking for the recorded MIC of the following molecule: CC[C@H]1OC(=O)[C@H](C)[C@@H](O[C@H]2C[C@@](C)(OC)[C@@H](OC(=O)NNC(=O)c3ccc4[nH]c(C(F)(F)F)nc4c3)[C@H](C)O2)[C@H](C)[C@@H](O[C@@H]2O[C@H](C)C[C@H](N(C)C)[C@H]2O)[C@](C)(OC)C[C@@H](C)C(=O)[C@H](C)[C@@H](O)[C@]1(C)O
Reply: 0.12

###

- Test system: Staphylococcus aureus
- protocol-details: Antibacterial activity against erythromycin-susceptible Staphylococcus aureus ATCC 25923 by broth microdilution method
- Type: functional
reported-endpoint: MIC
Returns: string containing the number followed by the unit.

Ask: Name the reported MIC value associated with the compound CC[C@H]1OC(=O)[C@H](C)[C@@H](O[C@H]2C[C@@](C)(OC)[C@@H](OC(=O)NNC(=O)c3ccc4[nH]c(-c5ccc(Br)cc5)nc4c3)[C@H](C)O2)[C@H](C)[C@@H](O[C@@H]2O[C@H](C)C[C@H](N(C)C)[C@H]2O)[C@](C)(OC)C[C@@H](C)C(=O)[C@H](C)[C@@H](O)[C@]1(C)O
Reply: 1 µg/mL

For the next question, use this compound.
Ask: Which MIC value is on record for CC[C@H]1OC(=O)[C@H](C)[C@@H](O[C@H]2C[C@@](C)(OC)[C@@H](OC(=O)NNC(=O)c3ccc4[nH]c(C(F)(F)F)nc4c3)[C@H](C)O2)[C@H](C)[C@@H](O[C@@H]2O[C@H](C)C[C@H](N(C)C)[C@H]2O)[C@](C)(OC)C[C@@H](C)C(=O)[C@H](C)[C@@H](O)[C@]1(C)O ?
Reply: 0.25 µg/mL

###

- Tested on: Streptococcus pneumoniae
- protocol-details: Antibacterial activity against erythromycin-susceptible Streptococcus pneumoniae ATCC 49619 by broth microdilution method
- Assay type: functional
A collection of compounds and their measured MIC
Give your result in µg/mL as a bare value.

Solved entries (count: 2):
Ask: Request the reported MIC associated with CC[C@H]1OC(=O)[C@H](C)[C@@H](O[C@H]2C[C@@](C)(OC)[C@@H](OC(=O)NNC(=O)c3ccc4[nH]c(-c5ccccc5)nc4c3)[C@H](C)O2)[C@H](C)[C@@H](O[C@@H]2O[C@H](C)C[C@H](N(C)C)[C@H]2O)[C@](C)(OC)C[C@@H](C)C(=O)[C@H](C)[C@@H](O)[C@]1(C)O
Reply: 0.03

Ask: If you can, please state the reported MIC value of CC[C@H]1OC(=O)[C@H](C)[C@@H](O[C@H]2C[C@@](C)(OC)[C@@H](OC(=O)NNC(=O)c3ccc4[nH]c(-c5ccc(OC)cc5)nc4c3)[C@H](C)O2)[C@H](C)[C@@H](O[C@@H]2O[C@H](C)C[C@H](N(C)C)[C@H]2O)[C@](C)(OC)C[C@@H](C)C(=O)[C@H](C)[C@@H](O)[C@]1(C)O .
Reply: 0.12

Turning now to a further record.
Ask: Fill in: MIC of CC[C@H]1OC(=O)[C@H](C)[C@@H](O[C@H]2C[C@@](C)(OC)[C@@H](OC(=O)NNC(=O)c3ccc4[nH]cnc4c3)[C@H](C)O2)[C@H](C)[C@@H](O[C@@H]2O[C@H](C)C[C@H](N(C)C)[C@H]2O)[C@](C)(OC)C[C@@H](C)C(=O)[C@H](C)[C@@H](O)[C@]1(C)O is ___
Reply: 0.12

###

- Tested on: Streptococcus pneumoniae
- protocol-details: Antibacterial activity against erythromycin-susceptible Streptococcus pneumoniae ATCC 49619 by broth microdilution method
- Assay type: functional
reported-endpoint: MIC (µg/mL)
Just the number please, in µg/mL, no unit attached.

Ask: Which value of MIC has been reported for CC[C@H]1OC(=O)[C@H](C)[C@@H](O[C@H]2C[C@@](C)(OC)[C@@H](OC(=O)NNC(=O)c3ccc4[nH]c(-c5ccccc5Cl)nc4c3)[C@H](C)O2)[C@H](C)[C@@H](O[C@@H]2O[C@H](C)C[C@H](N(C)C)[C@H]2O)[C@](C)(OC)C[C@@H](C)C(=O)[C@H](C)[C@@H](O)[C@]1(C)O in the records?
Reply: 0.03

Query compound follows.
Ask: Data request, read-out MIC, for CC[C@H]1OC(=O)[C@H](C)[C@@H](O[C@H]2C[C@@](C)(OC)[C@@H](O)[C@H](C)O2)[C@H](C)[C@@H](O[C@@H]2O[C@H](C)C[C@H](N(C)C)[C@H]2O)[C@](C)(OC)C[C@@H](C)C(=O)[C@H](C)[C@@H](O)[C@]1(C)O
Reply: 0.12

###

- Tested on: Streptococcus pneumoniae
- protocol-details: Antibacterial activity against erythromycin-susceptible Streptococcus pneumoniae ATCC 49619 by broth microdilution method
- Type: functional
Listing of entries alongside the reported MIC.
Please state the value followed by its unit.

Ask: # lookup: MIC of CC[C@H]1OC(=O)[C@H](C)[C@@H](O[C@H]2C[C@@](C)(OC)[C@@H](OC(=O)NNC(=O)c3ccc4[nH]c(-c5cccc([N+](=O)[O-])c5)nc4c3)[C@H](C)O2)[C@H](C)[C@@H](O[C@@H]2O[C@H](C)C[C@H](N(C)C)[C@H]2O)[C@](C)(OC)C[C@@H](C)C(=O)[C@H](C)[C@@H](O)[C@]1(C)O
Reply: 0.25 µg/mL

Ask: Which MIC reading was recorded for the compound CC[C@H]1OC(=O)[C@H](C)[C@@H](O[C@H]2C[C@@](C)(OC)[C@@H](OC(=O)NNC(=O)c3ccc4[nH]c(C(C)C)nc4c3)[C@H](C)O2)[C@H](C)[C@@H](O[C@@H]2O[C@H](C)C[C@H](N(C)C)[C@H]2O)[C@](C)(OC)C[C@@H](C)C(=O)[C@H](C)[C@@H](O)[C@]1(C)O ?
Reply: 0.12 µg/mL

Ask: Which MIC value belongs to CCc1nc2cc(C(=O)NNC(=O)O[C@H]3[C@H](C)O[C@@H](O[C@H]4[C@H](C)[C@@H](O[C@@H]5O[C@H](C)C[C@H](N(C)C)[C@H]5O)[C@](C)(OC)C[C@@H](C)C(=O)[C@H](C)[C@@H](O)[C@](C)(O)[C@@H](CC)OC(=O)[C@@H]4C)C[C@@]3(C)OC)ccc2[nH]1 ?
Reply: 0.25 µg/mL

###

- Tested on: Streptococcus pneumoniae
- protocol-details: Antibacterial activity against erythromycin-susceptible Streptococcus pneumoniae ATCC 49619 by broth microdilution method
- Assay type: functional
MIC reference
Give just the number in µg/mL; leave the unit off.

Answered examples (2):
Ask: Form field - read-out: MIC; system: Streptococcus pneumoniae; submitted item: CC[C@H]1OC(=O)[C@H](C)[C@@H](O[C@H]2C[C@@](C)(OC)[C@@H](OC(=O)NNC(=O)c3ccc4[nH]c(-c5ccc(C)cc5)nc4c3)[C@H](C)O2)[C@H](C)[C@@H](O[C@@H]2O[C@H](C)C[C@H](N(C)C)[C@H]2O)[C@](C)(OC)C[C@@H](C)C(=O)[C@H](C)[C@@H](O)[C@]1(C)O
Reply: 0.12

Ask: # returns recorded MIC (system: Streptococcus pneumoniae) for CC[C@H]1OC(=O)[C@H](C)[C@@H](O[C@H]2C[C@@](C)(OC)[C@@H](OC(=O)NNC(=O)c3ccc4[nH]c(-c5ccc([N+](=O)[O-])cc5)nc4c3)[C@H](C)O2)[C@H](C)[C@@H](O[C@@H]2O[C@H](C)C[C@H](N(C)C)[C@H]2O)[C@](C)(OC)C[C@@H](C)C(=O)[C@H](C)[C@@H](O)[C@]1(C)O
Reply: 0.25

We now examine a further compound.
Ask: Request - read-out MIC | tested on Streptococcus pneumoniae | compound CC[C@H]1OC(=O)[C@H](C)[C@@H](O[C@H]2C[C@@](C)(OC)[C@@H](OC(=O)NNC(=O)c3ccc4[nH]c(-c5cccc(OC)c5)nc4c3)[C@H](C)O2)[C@H](C)[C@@H](O[C@@H]2O[C@H](C)C[C@H](N(C)C)[C@H]2O)[C@](C)(OC)C[C@@H](C)C(=O)[C@H](C)[C@@H](O)[C@]1(C)O
Reply: 0.03
